Cited source for all entries: the RNAGym collection of RNA variant scans (doi:10.1021/acssynbio.7b00057)

B1: Pistol ribozyme (parent)
chain: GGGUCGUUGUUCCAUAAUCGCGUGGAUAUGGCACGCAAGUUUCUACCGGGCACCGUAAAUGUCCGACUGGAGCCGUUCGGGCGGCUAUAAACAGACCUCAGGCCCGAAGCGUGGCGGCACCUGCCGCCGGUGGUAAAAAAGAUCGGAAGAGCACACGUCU

# Variants of: B1
# Test details: aptazyme ON/OFF ratio, guanine; higher = stronger switching; co-transcriptional cleavage with and without guanine
Each entry below lists one item and its recorded aptazyme ON/OFF ratio value.
Measured parameter: aptazyme ON/OFF ratio

Mutation	Measured parameter	Experimental value
U7A U8C G9C U11G	aptazyme ON/OFF ratio	1.09
U8G G9C U10G U11A C12G C13A	aptazyme ON/OFF ratio	1.14
U10G U11C C12U C13G	aptazyme ON/OFF ratio	1.27
U7C U8G C12A C13G	aptazyme ON/OFF ratio	1.08
U7A U8G G9A U10G C12A C13U	aptazyme ON/OFF ratio	1.31
U10G U11A C12A C13G	aptazyme ON/OFF ratio	1.06
U7G U8C G9C U10A U11A C12G	aptazyme ON/OFF ratio	1.19
U7C U8G U10C U11C C12A C13G	aptazyme ON/OFF ratio	1.14
U7G G9C U10C U11A C13U	aptazyme ON/OFF ratio	1.25
U11C C13U	aptazyme ON/OFF ratio	1.24
U7G U8G G9A U10A U11A C12U C13A	aptazyme ON/OFF ratio	1.03
U8C U11C C12A C13U	aptazyme ON/OFF ratio	1.73
U7G U11C C12G C13A	aptazyme ON/OFF ratio	1.2
U7A U8G G9A U10G U11G C12G C13A	aptazyme ON/OFF ratio	0.971
U7A U8C G9C U11C C12A	aptazyme ON/OFF ratio	1.04
U7A G9A U10A U11C C12U	aptazyme ON/OFF ratio	1.1
U7C U8G G9C U11C C12U C13A	aptazyme ON/OFF ratio	1.15
U7A U8C G9U U10C C12U C13G	aptazyme ON/OFF ratio	1.09
U7A U8G U10A C12G C13G	aptazyme ON/OFF ratio	1.26
U8G G9U U10G U11C C13G	aptazyme ON/OFF ratio	1.04
U8C G9A U10G U11A C13U	aptazyme ON/OFF ratio	1.02
U7G U8A G9U U11G C12G	aptazyme ON/OFF ratio	1.12
U8C G9U U10G C12A C13A	aptazyme ON/OFF ratio	1.48
U7C U8A G9C U10G U11G C12G C13G	aptazyme ON/OFF ratio	1.13
U7A U8G U10C U11C C12A C13G	aptazyme ON/OFF ratio	1.3
U7C G9C U10A U11G C12G C13G	aptazyme ON/OFF ratio	1.09
U7A U8C U10G U11A C12U	aptazyme ON/OFF ratio	1.11
U7A U8G G9C U10A U11C C13U	aptazyme ON/OFF ratio	1.04
U7G U8C U11A	aptazyme ON/OFF ratio	1.39
U7G U8C C13A	aptazyme ON/OFF ratio	1.21
U7G U8A G9A U10G C12G C13A	aptazyme ON/OFF ratio	1.1
U7A U8A G9U U10G U11A C13U	aptazyme ON/OFF ratio	1.1
U8A G9C U10A U11G C12G C13U	aptazyme ON/OFF ratio	1.21
U7G U8G G9A U10A U11C C12A C13A	aptazyme ON/OFF ratio	1.06
U7G U8A G9C U10C U11G C12G C13G	aptazyme ON/OFF ratio	1.02
U7G U8C G9A U10C U11C C12G	aptazyme ON/OFF ratio	1.16
U7G G9C U10C C12U C13G	aptazyme ON/OFF ratio	1.21
U7G U8C U10A U11C C12A C13U	aptazyme ON/OFF ratio	1.27
U7A U8G G9C U10G U11G C12A	aptazyme ON/OFF ratio	1.36
U7G U8C G9A U10C U11C C12G C13G	aptazyme ON/OFF ratio	1.05
U8A U10G C12U C13G	aptazyme ON/OFF ratio	1.23
U7G U8C U10A C12U C13A	aptazyme ON/OFF ratio	1.36
U8G G9C U11G C12G C13U	aptazyme ON/OFF ratio	1.11
U7A U8A U11A C12G C13U	aptazyme ON/OFF ratio	1.16
U7G G9U U10G C13G	aptazyme ON/OFF ratio	1.21
U7G U8G G9U U11G C12U C13G	aptazyme ON/OFF ratio	1.2
U8G G9C U10A U11G C12G	aptazyme ON/OFF ratio	1.19
U7G U8G G9C U11A C12G C13A	aptazyme ON/OFF ratio	1.12
U7A U8C G9A U10C U11A C12G	aptazyme ON/OFF ratio	1.21
U8A G9A U10A U11A C12A C13A	aptazyme ON/OFF ratio	1.29
U7G U8A G9C U10A U11G C12U C13A	aptazyme ON/OFF ratio	1.02
U7A U10A C12U C13G	aptazyme ON/OFF ratio	1.14
U7G U8A G9A U10C U11A C12A C13A	aptazyme ON/OFF ratio	1.2
G9U U10A U11G C12U C13G	aptazyme ON/OFF ratio	1.47
U7C U11G C12G C13A	aptazyme ON/OFF ratio	1.14
U7G U8C G9U U10C U11C C12U C13A	aptazyme ON/OFF ratio	1.55
G9U U10C C12G C13A	aptazyme ON/OFF ratio	1.35
U7G G9C U10A U11C C12G	aptazyme ON/OFF ratio	1.27
U7C U8C G9C U10C U11C C12A	aptazyme ON/OFF ratio	1.04
U7A U8A G9A U10C U11A C13U	aptazyme ON/OFF ratio	1.09
U7G U8G G9C U11G C12U	aptazyme ON/OFF ratio	1.31
U7C U8G C12G C13G	aptazyme ON/OFF ratio	1.08
U7A G9C U10C U11C C12G	aptazyme ON/OFF ratio	1.03
U8A U10G U11G C12U C13A	aptazyme ON/OFF ratio	1.15
U7A U8A G9C U11G C12A C13A	aptazyme ON/OFF ratio	1.17
U7A U8C U10A U11G C12A	aptazyme ON/OFF ratio	1.1
U8A G9C U11C C12A C13U	aptazyme ON/OFF ratio	1.06
G9U U10A U11C C13G	aptazyme ON/OFF ratio	1.04
U7C U8G G9C U10G U11G C13A	aptazyme ON/OFF ratio	1.13
U10A C12A C13U	aptazyme ON/OFF ratio	1.31
G9C U10C U11C C13A	aptazyme ON/OFF ratio	1.02
U7C G9A U10A U11A C12A C13U	aptazyme ON/OFF ratio	1.29
U7G U8C U10C C13U	aptazyme ON/OFF ratio	1.64
U7C G9A U10A U11G C12G C13G	aptazyme ON/OFF ratio	1.08
U7C U8A G9C U10C U11G C12A	aptazyme ON/OFF ratio	1.11
U8G G9U U10C U11C C12U C13G	aptazyme ON/OFF ratio	1.02
U7G U8C G9C U10A U11A	aptazyme ON/OFF ratio	3.4
U7C U8C G9U C12U C13G	aptazyme ON/OFF ratio	1.02
U8G G9U U11G C12A C13A	aptazyme ON/OFF ratio	1.14
U7G G9A U10A U11G C12U C13G	aptazyme ON/OFF ratio	1.09
U7C G9A U10A C12U C13A	aptazyme ON/OFF ratio	1.16
U7G U8G G9U U10C U11G C12G C13A	aptazyme ON/OFF ratio	1.16
U7G U8G G9A U10A U11A	aptazyme ON/OFF ratio	1.53
U7C U8G G9U U10C U11A C12G C13A	aptazyme ON/OFF ratio	1.14
U8G G9U U10C C12A C13G	aptazyme ON/OFF ratio	1.15
U7C U8C G9U C13G	aptazyme ON/OFF ratio	1.03
U7C U8G G9U U10G C12G	aptazyme ON/OFF ratio	1.08
U7A G9A U10G U11A C13A	aptazyme ON/OFF ratio	1.09
U7G U8A U10G U11C C12A C13U	aptazyme ON/OFF ratio	1.2
U7G U8G G9U U11A C12A	aptazyme ON/OFF ratio	1.43
G9A U10G U11A C13G	aptazyme ON/OFF ratio	1.04
